measure name: melting point

INSERT INTO assay_data (molecule, val) VALUES
  ('CCCCC(Cc1ccc(OCCCN(C)C(=O)c2ccc(-c3ccccn3)cc2)cc1)C(=O)O (configuration not stated)', '110 to 112 °C');

Input line: If you can, please state the reported melting point value of `C[C@@H]1CNCc2cc3cccc(OC(F)(F)F)c3n21` .
Output line: 58 to 60 °C

Input line: If you can, please state the reported melting point value of `COc1ccc(C(=O)N(C(=O)c2ccc(OC)cc2)c2nc3ccc(N4CCN(C)CC4)cc3c(NCc3ccccc3)c2C#N)cc1` .
Output line: 176 °C

====

Listed next: entries and their corresponding melting point.

Below are worked cases with known answers.
INSERT INTO measurements (molecule, val) VALUES
  ('O=c1c2cc3ccccc3cc2nc(CSc2ncnc3[nH]cnc23)n1-c1ccccc1Cl', '248 to 254 °C'),
  ('CC(C)(C)OC(=O)ON=C(C#N)c1ccc(Cl)cc1', '91 to 92 °C'),
  ('CC1=Nc2ccccc2N(Cc2ccccc2)C(=O)C1Cc1ccccc1 (stereo not given)', '140 to 141 °C'),
  ('COc1cc2c(cc1Nc1ncc(Cl)c(Nc3cc(C(N)=O)ccc3OC)n1)CCN(CCS(C)(=O)=O)CC2', '232 to 243 °C');

Here's the next entry for you.
Input line: If you can, please state the reported melting point value of `CCOC(=O)c1cccc(OP(=O)(CCN2CCCNc3c2c(=O)c3=O)Oc2cccc(C(=O)OCC)c2)c1` .
Output line: 116 to 117 °C

Entry source: a melting point compilation (Tetko et al.; mined from patent text by program, amines drawn as free bases though some values may be those of a salt)
